assay-info: in vitro
Assay type: in vitro ADME
details: human, microsomes; HLM 0.5 mg/mL, 1 μM, 30 min, Mean; read-out: Percent Remaining (%) 30 min

compound	remaining at 0.5 h / %
CC(C)(C)[C@H](NC(=O)C(F)(F)F)C(=O)N1C[C@H]2[C@@H]([C@H]1C(=O)N[C@H](C#N)C[C@@H]1CCNC1=O)C2(C)C [Nirmatrelvir, reference compound]	38.7
C[C@@H](NC(=O)C1CCC(F)(F)CC1)C(=O)N[C@H](Cc1ccccc1)C(=O)C(=O)NCc1nccs1 [3r]	51
COC[C@@H](NC(=O)C1CCC(F)(F)CC1)C(=O)N[C@H](Cc1ccccc1)C(=O)C(=O)NCc1nccs1 [3v]	54.5
COC[C@@H](NC(=O)CC1CC(F)(F)C1)C(=O)N[C@H](Cc1ccccc1)C(=O)C(=O)NCc1nccs1 [3x]	50.5
C[C@@H](NC(=O)C1CCC(F)(F)C1)C(=O)N[C@H](Cc1ccccc1)C(=O)C(=O)NCc1nccs1 (stereo partly drawn) [3t]	56.2
O=C(c1ccc(F)cc1)C1CCN(CCn2c(=O)[nH]c3ccccc3c2=O)CC1 [Ketanserin, reference compound]	38.1
C[C@@H](NC(=O)C1CCCC(F)(F)C1)C(=O)N[C@H](Cc1ccccc1)C(=O)C(=O)NCc1nccs1 (stereo partly drawn) [3s]	42
O=C(CC1CC(F)(F)C1)NCC(=O)N[C@H](Cc1ccccc1)C(=O)C(=O)NCc1nccs1 [3q]	40.1
COC[C@@H](NC(=O)C1CCCC(F)(F)C1)C(=O)N[C@H](Cc1ccccc1)C(=O)C(=O)NCc1nccs1 (stereo partly drawn) [SY110]	48
